tested on: Fusarium verticillioides; experiment: Antifungal activity against Fusarium verticillioides assessed as reduction in colony diameter at 10 to 160 g/l incubated for 15 min followed by compound washout measured after 7 days in presence of surfactant APSA 80 relative to control; assay type: functional; design: scale not given: the % may be the effect or the level left
test.readout: Activity (%)

{"molecule": "O=C([O-])[O-].[Na+].[Na+] [SODIUM CARBONATE]", "unit.annotation": "%", "readout.number": 75}
{"molecule": "[Cl-].[Na+] [SODIUM CHLORIDE]", "unit.annotation": "%", "readout.number": 79}
{"molecule": "[Na+].[O-]Cl [SODIUM HYPOCHLORITE]", "unit.annotation": "%", "readout.number": 51}
{"molecule": "[Ca+2].[Cl-].[Cl-] [CALCIUM CHLORIDE]", "unit.annotation": "%", "readout.number": 53}
{"molecule": "O=C([O-])O.[Na+] [SODIUM BICARBONATE]", "unit.annotation": "%", "readout.number": 50}

====

system: Fusarium verticillioides; assay: Antifungal activity against Fusarium verticillioides infected Cavendish banana fruit assessed as reduction in crown rot incubated for 15 min followed by compound washout measured after 2 weeks in absence of surfactant APSA 80 relative to control; type: functional; parameters: concentration or dose not given beside the values
A collection of compounds and their measured Activity
test.readout: Activity (%)

{"compound": "[Ca+2].[Cl-].[Cl-] [CALCIUM CHLORIDE]", "test.readout": "Activity", "readout.number": 0}
{"compound": "[Na+].[O-]Cl [SODIUM HYPOCHLORITE]", "test.readout": "Activity", "readout.number": 50}
{"compound": "O=C([O-])[O-].[Na+].[Na+] [SODIUM CARBONATE]", "test.readout": "Activity", "readout.number": 0}
{"compound": "[Cl-].[Na+] [SODIUM CHLORIDE]", "test.readout": "Activity", "readout.number": 0}
{"compound": "O=C([O-])O.[Na+] [SODIUM BICARBONATE]", "test.readout": "Activity", "readout.number": 25}

====

system: Thielaviopsis paradoxa; assay: Antifungal activity against Ceratocystis paradoxa infected Cavendish banana fruit assessed as reduction in crown rot incubated for 15 min followed by compound washout measured after 2 weeks in presence of surfactant APSA 80 relative to control; type: functional; parameters: scale not given: the % may be the effect or the level left
test.readout: Activity (%)

{"compound": "O=C([O-])[O-].[Na+].[Na+] [SODIUM CARBONATE]", "measured.on": "Thielaviopsis paradoxa", "unit.annotation": "%", "readout.number": 25}
{"compound": "[Cl-].[Na+] [SODIUM CHLORIDE]", "measured.on": "Thielaviopsis paradoxa", "unit.annotation": "%", "readout.number": 10}
{"compound": "O=C([O-])O.[Na+] [SODIUM BICARBONATE]", "measured.on": "Thielaviopsis paradoxa", "unit.annotation": "%", "readout.number": 0}
{"compound": "[Ca+2].[Cl-].[Cl-] [CALCIUM CHLORIDE]", "measured.on": "Thielaviopsis paradoxa", "unit.annotation": "%", "readout.number": 50}
{"compound": "[Na+].[O-]Cl [SODIUM HYPOCHLORITE]", "measured.on": "Thielaviopsis paradoxa", "unit.annotation": "%", "readout.number": 50}
